# subject.of.test: human GLP-1 receptor (human, UniProt P43220 24-463)
# method: cell-based or functional assay
Starred links: 1 amine or outer side, 2 acyl side, 3 side chain; linkers in the order of their positions; H or OH if unused. Non-standard residues stand in square brackets, D forms with d. Groups on a side chain read outwards from the residue. No end group written: not given here. *: point of attachment. C20 diacid = O=C(O)CCCCCCCCCCCCCCCCCCC(=O)*; C18 diacid = O=C(O)CCCCCCCCCCCCCCCCC(=O)*; γGlu = O=C(O)[C@H](CCC(=O)[*:2])N[*:1]; εLys = N[C@@H](CCCCN[*:1])C(=O)[*:2]; AEEA = NCCOCCOCC(=O)O; Aib = CC(C)(N)C(=O)O
readout.name: EC50 CreLuc hGLP1R 0.5% hP

Please review the following examples before continuing.
{"binder": "YXEGTFTSDYSIXLEKQAQXAFVEWLIKGGPSSPASLRHYYNWLTRQRY (Aib at 2, 13, 20; K28 side chain: C20DA-gGlu-gGlu-gGlu-gGlu-gGlu-gGlu-eLys; C-terminal NH2) [Compound 95]", "EC50 CreLuc hGLP1R 0.5% hP": "0.13 nM"}
{"binder": "Y[Aib]EGTFTSDYSI[Aib]LEKQAQ[Aib]AFVEWLIKGGPSSYASLRHYYNWLTRQRY-NH2 (not fully specified (residue 28)) [Compound 126]", "EC50 CreLuc hGLP1R 0.5% hP": "0.18 nM"}
{"binder": "Y[Aib]EGTFTSDYSI[Aib]LEKQAQ[Aib]EFVEWLIK([εLys-γGlu-γGlu-γGlu-γGlu-γGlu-γGlu-γGlu-C20 diacid])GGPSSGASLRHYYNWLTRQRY-NH2 [Compound 88]", "EC50 CreLuc hGLP1R 0.5% hP": "1.12 nM"}
{"binder": "YXEGTFTSDYSIXLEKQAQXAFVEWLIKGGPSSGVSLRHYYNWLTRQRY (Aib at 2, 13, 20; K28 side chain: C20DA-gGlu-gGlu-gGlu-gGlu-gGlu-gGlu-eLys; C-terminal NH2) [Compound 96]", "EC50 CreLuc hGLP1R 0.5% hP": "0.14 nM"}
{"binder": "Y[Aib]EGTFTSDYSI[Aib]LEKQAQ[Aib]AFVEWLLKGGPSSGASLRHYYNWLTRQRY-NH2 (not fully specified (residue 28)) [Compound 109]", "EC50 CreLuc hGLP1R 0.5% hP": "0.28 nM"}

What value of measured EC50 CreLuc hGLP1R 0.5% hP is listed for YXEGTFTSDYSIXLEKQAQXAFVEWLIKGGPSSGASXRHYYNWLTRQRY (Aib at 2, 13, 20; Tle at 37; K28 side chain: C20DA-gGlu-gGlu-gGlu-gGlu-gGlu-gGlu-eLys; C-terminal NH2) [Compound 103] ?
0.13 nM

What value of measured EC50 CreLuc hGLP1R 0.5% hP is listed for Y[Aib]EGTFTSDYSI[Aib]LEKQAQ[Aib]EFVEWLIK([εLys-γGlu-γGlu-γGlu-γGlu-γGlu-C18 diacid])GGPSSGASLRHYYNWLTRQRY-NH2 [Compound 159] ?
0.19 nM

What value of measured EC50 CreLuc hGLP1R 0.5% hP is listed for YXEGTFTSDYSIXLEKQAQXAFVEWLIKGGPSSAASLRHYYNWLTRQRY (Aib at 2, 13, 20; K28 side chain: C20DA-gGlu-gGlu-gGlu-gGlu-gGlu-gGlu-eLys; C-terminal NH2) [Compound 98] ?
0.31 nM

What value of measured EC50 CreLuc hGLP1R 0.5% hP is listed for Y[Aib]EGTFTSDYSI[Aib]LEKQAQ[Aib]AFVQWLIKGGPSSGASLRHYYNWLTRQRY-NH2 (not fully specified (residue 28)) [Compound 147] ?
0.08 nM

What value of measured EC50 CreLuc hGLP1R 0.5% hP is listed for Y[Aib]EGTFTSDYSI[Aib]LEKQAQ[Aib]EFVEWLIK([AEEA-AEEA-γGlu-γGlu-γGlu-C18 diacid])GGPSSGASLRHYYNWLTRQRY-NH2 [Compound 171] ?
0.27 nM

What value of measured EC50 CreLuc hGLP1R 0.5% hP is listed for YXEGTFTSDYSIXLEKQAQXAFVEWLIKGGPSSGASLRHYINWLTRQRY (Aib at 2, 13, 20; K28 side chain: C20DA-gGlu-gGlu-gGlu-gGlu-gGlu-gGlu-eLys; C-terminal NH2) [Compound 106] ?
0.14 nM

What value of measured EC50 CreLuc hGLP1R 0.5% hP is listed for YXEGTFTSDYSIXLEKQAQXAFVEWLIKGGPSSGATLRHYYNWLTRQRY (Aib at 2, 13, 20; K28 side chain: C20DA-gGlu-gGlu-gGlu-gGlu-gGlu-gGlu-eLys; C-terminal NH2) [Compound 91] ?
0.17 nM

What value of measured EC50 CreLuc hGLP1R 0.5% hP is listed for Y[Aib]EGTFTSDYSI[Aib]LEKQAQ[Aib]EFVQWLIK([εLys-γGlu-γGlu-γGlu-γGlu-γGlu-C18 diacid])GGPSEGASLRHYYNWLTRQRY-NH2 [Compound 154] ?
0.26 nM

What value of measured EC50 CreLuc hGLP1R 0.5% hP is listed for YXEGTFTSDYSIXLEKQAQXAFVEWLIKGGPSSGESLRHYYNWLTRQRY (Aib at 2, 13, 20; K28 side chain: C20DA-gGlu-gGlu-gGlu-gGlu-gGlu-gGlu-eLys; C-terminal NH2) [Compound 127] ?
0.04 nM

What value of measured EC50 CreLuc hGLP1R 0.5% hP is listed for Y[Aib]EGTFTSDYSI[Aib]LEKQAQ[Aib]EFVEWLIK([AEEA-AEEA-γGlu-γGlu-γGlu-γGlu-C18 diacid])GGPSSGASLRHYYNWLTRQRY-NH2 [Compound 145] ?
0.31 nM

What value of measured EC50 CreLuc hGLP1R 0.5% hP is listed for YXEGTFTSDYSIXLEKQAQXEFVQWLIKGGPSEGASLRHYYNWLTRQRY (Aib at 2, 13, 20; K28 side chain: C18DA-gGlu-gGlu-gGlu-gGlu-gGlu; C-terminal NH2) [Compound 141] ?
0.25 nM

What value of measured EC50 CreLuc hGLP1R 0.5% hP is listed for Y[Aib]EGTFTSDYSI[Aib]LEKQAQ[Aib]AFVEWLIK([AEEA-AEEA-γGlu-γGlu-γGlu-γGlu-C18 diacid])GGPEEPASLRHYYNWLTRQRY-NH2 [Compound 161] ?
0.21 nM

What value of measured EC50 CreLuc hGLP1R 0.5% hP is listed for YXEGTFTSDYSIXLEKQAQXAFVEWLIKGGPSSGLSLRHYYNWLTRQRY (Aib at 2, 13, 20; K28 side chain: C20DA-gGlu-gGlu-gGlu-gGlu-gGlu-gGlu-eLys; C-terminal NH2) [Compound 107] ?
0.13 nM

What value of measured EC50 CreLuc hGLP1R 0.5% hP is listed for YXEGTFTSDYSIXLEKQAQXAFVQWLIKGGPEEGASLRHYYNWLTRQRY (Aib at 2, 13, 20; K28 side chain: C18DA-gGlu-gGlu-gGlu-gGlu-gGlu-gGlu-eLys; C-terminal NH2) [Compound 149] ?
0.15 nM
